Test Protocol: yeast NALP1 reporter signal suppression – S. cerevisiae, luminescence, single concentration, NALP1 inhibitor project, confirmation (AID 488841);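 note: plate controls were DMSO in galactose medium for no effect and cells in plain SD medium for full effect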
Measurement Conditions: S. cerevisiae NALP1/ASC/Caspase-1 reporter, beta-gal luminescence; at 10 µM; stronger effect = higher value
The whole screen tested about 1,400 compounds, of which about 380 (27%) were called active. The list shows a part of the results.
Readout Label: inhibition (%)

Clc1ccc(OCCCNCc2ccccc2)c2ccccc12	49.3
CCN1/C(=C/C=C/C=C/c2sc3ccccc3[n+]2CC)Sc2ccccc21	51
Oc1c(Br)cc(Br)cc1C=Nc1ccc2c(c1)OCO2	48.6

###

Test Protocol: yeast NALP1 reporter signal suppression – S. cerevisiae, luminescence, single concentration, NALP1 inhibitor project, confirmation (AID 488841);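 note: plate controls were DMSO in galactose medium for no effect and cells in plain SD medium for full effect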
Measurement Conditions: S. cerevisiae NALP1/ASC/Caspase-1 reporter, beta-gal luminescence; at 10 µM
Among all 1,400 compounds or so, about 380 (27%) were called active.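 Rule for the calls: active = mean inhibition above 50% across duplicate retests at 10 µM; inactive = the rest.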 This is one part of the list.
Possible outcomes: T (active), F (inactive)

CCOc1ccccc1NC(=O)/C=C/C(N)=O	T
COc1ccccc1NC(=O)CCN1CCN(Cc2ccccc2)CC1	F
CSc1nc(C)cc(OCCO)n1	F
O=C1C2C3C=CC(C2C(=O)N1CCCO)C1C2C(=O)N(CCCO)C(=O)C2C31 (stereo not given)	F
Clc1ccc(C2=NNC(=NCc3ccc4c(c3)OCO4)SC2)cc1	F
CCOc1ccc(NC2=C(OC)C(=O)c3ccccc3C2=O)cc1	F
O=C1C2C(C(=O)N1/N=C/c1cc(Br)cc([N+](=O)[O-])c1O)C1C=CC2C12CC2 (stereo not given)	T
CCCCOc1ccccc1NC(=O)c1ccco1	F
O=C1C2C(C(=O)N1/N=C/c1ccc([N+](=O)[O-])o1)C1C=CC2C12CC2 (stereo not given)	F
CC(C)CC(=O)c1c[nH]c(C(=O)NCc2cccs2)c1	F
